- subjectOfTest: GlcNAc(b1-3)Gal(b1-4)GlcNAc(b1-3)Gal(b1-4)GlcNAc(b1-3)Gal(b1-4)GlcNAc(b1-2)Man(a1-3)[GlcNAc(b1-3)Gal(b1-4)GlcNAc(b1-3)Gal(b1-4)GlcNAc(b1-3)Gal(b1-4)GlcNAc(b1-2)Man(a1-6)]Man(b1-4)GlcNAc(b1-4)GlcNAc
- assayDetails: glycan array binding signal (z-score within array); higher = stronger binding
- runParameters: glycan notation: IUPAC condensed, linker removed
Many of the other results were omitted from the sample, so the strongest signals are more common in it than they were.
readoutLabel: glycan array binding signal (z-score)
Simply state the number, no unit and no words.

[[record]]
binder = "Nc3LysM-2 (protein) AHVLQARQSVSCDFATAANTGDTCASFAAAWGITEAAFAKLNPGVSCPGNLIAGSEYCVIGTVSTGAPTTTKAATTSTTPPTTTTTTKATTLSTSTTSVSPTGPSPQMPSITSTCNKFYQVQSGDGCWSIEQAQGVSASDFMAWNKAVDAQCDNLWLGYYVCVGVKGGSSPPPTTTTKPASSSAPTPQMPNTVSNCKKFHKVVSGDGCWAIEQAAGISASDFAKWNPYVDAACDNLWLGYYVCIGV"
readoutlabel = "glycan array binding signal (z-score)"
valueobserved = -0.959


glycan array binding signal (z-score) recorded for this binder, rCnSL-proA (Clitocybe nebularis) (protein) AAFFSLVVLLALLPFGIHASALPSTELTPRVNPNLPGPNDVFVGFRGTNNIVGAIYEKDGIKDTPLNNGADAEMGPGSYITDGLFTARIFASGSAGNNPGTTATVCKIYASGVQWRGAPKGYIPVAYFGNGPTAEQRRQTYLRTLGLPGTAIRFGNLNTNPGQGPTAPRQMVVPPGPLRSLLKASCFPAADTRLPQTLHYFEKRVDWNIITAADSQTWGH , is -0.215

glycan array binding signal (z-score) recorded for this binder, DC-ASGPR S+GEE (Homo sapiens) (protein) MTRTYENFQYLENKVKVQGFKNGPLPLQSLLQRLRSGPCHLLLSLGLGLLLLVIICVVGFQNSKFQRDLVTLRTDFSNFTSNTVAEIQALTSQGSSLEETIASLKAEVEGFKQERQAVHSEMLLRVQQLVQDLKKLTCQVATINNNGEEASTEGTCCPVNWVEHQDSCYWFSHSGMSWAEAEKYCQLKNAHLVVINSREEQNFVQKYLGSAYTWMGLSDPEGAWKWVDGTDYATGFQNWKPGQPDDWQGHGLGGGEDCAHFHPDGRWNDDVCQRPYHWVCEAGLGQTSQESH , is -0.276
